system: Human immunodeficiency virus 1; test: Antiviral activity against HIV1 JRFL infected in human HeLa cells expressing CD4 and CCR5 assessed as inhibition of single-cycle viral replication by luciferase reporter gene assay; type: functional, organism-based; conditions: Human immunodeficiency virus 1, JRFL
fulfilled if EC50 is below 1 nM. not fulfilled if not; exact matches included in not fulfilled.

MOL: O=C(NCc1ccco1)c1ccc(F)c2c(C(=O)C(=O)N3CCN(C(=O)c4ccccc4)CC3)c[nH]c12
MEASURED ON: Human immunodeficiency virus 1
LABEL CLASS: not fulfilled

MOL: COc1ccc(C(N)=O)c2[nH]cc(C(=O)C(=O)N3CCN(C(=O)c4ccccc4)CC3)c12
MEASURED ON: Human immunodeficiency virus 1
LABEL CLASS: fulfilled

MOL: CS(=O)(=O)NC(=O)c1ccc(F)c2c(C(=O)C(=O)N3CCN(C(=O)c4ccccc4)CC3)c[nH]c12
MEASURED ON: Human immunodeficiency virus 1
LABEL CLASS: not fulfilled

MOL: CONC(=O)c1ccc(F)c2c(C(=O)C(=O)N3CCN(C(=O)c4ccccc4)CC3)c[nH]c12
MEASURED ON: Human immunodeficiency virus 1
LABEL CLASS: not fulfilled

MOL: CNC(=O)c1ccc(F)c2c(C(=O)C(=O)N3CCN(C(=O)c4ccccc4)CC3)c[nH]c12
MEASURED ON: Human immunodeficiency virus 1
LABEL CLASS: fulfilled

MOL: O=C(NCCN1CCOCC1)c1ccc(F)c2c(C(=O)C(=O)N3CCN(C(=O)c4ccccc4)CC3)c[nH]c12
MEASURED ON: Human immunodeficiency virus 1
LABEL CLASS: not fulfilled

MOL: O=C(Nc1nccs1)c1ccc(F)c2c(C(=O)C(=O)N3CCN(C(=O)c4ccccc4)CC3)c[nH]c12
MEASURED ON: Human immunodeficiency virus 1
LABEL CLASS: fulfilled

MOL: O=C(NC1=NCCS1)c1ccc(F)c2c(C(=O)C(=O)N3CCN(C(=O)c4ccccc4)CC3)c[nH]c12
MEASURED ON: Human immunodeficiency virus 1
LABEL CLASS: fulfilled

MOL: NC(=O)c1ccc(F)c2c(C(=O)C(=O)N3CCN(C(=O)c4ccccc4)CC3)c[nH]c12
MEASURED ON: Human immunodeficiency virus 1
LABEL CLASS: not fulfilled

MOL: C[C@@H]1CN(C(=O)c2ccccn2)CCN1C(=O)C(=O)c1c[nH]c2c(C(N)=O)ccc(F)c12
MEASURED ON: Human immunodeficiency virus 1
LABEL CLASS: not fulfilled

MOL: O=C(Nc1ccncc1)c1ccc(F)c2c(C(=O)C(=O)N3CCN(C(=O)c4ccccc4)CC3)c[nH]c12
MEASURED ON: Human immunodeficiency virus 1
LABEL CLASS: not fulfilled

MOL: O=C(Nc1cccnc1)c1ccc(F)c2c(C(=O)C(=O)N3CCN(C(=O)c4ccccc4)CC3)c[nH]c12
MEASURED ON: Human immunodeficiency virus 1
LABEL CLASS: not fulfilled

MOL: O=C(Nc1nnn[nH]1)c1ccc(F)c2c(C(=O)C(=O)N3CCN(C(=O)c4ccccc4)CC3)c[nH]c12
MEASURED ON: Human immunodeficiency virus 1
LABEL CLASS: fulfilled

MOL: NCCNC(=O)c1ccc(F)c2c(C(=O)C(=O)N3CCN(C(=O)c4ccccc4)CC3)c[nH]c12
MEASURED ON: Human immunodeficiency virus 1
LABEL CLASS: not fulfilled

MOL: O=C(Nc1ccccn1)c1ccc(F)c2c(C(=O)C(=O)N3CCN(C(=O)c4ccccc4)CC3)c[nH]c12
MEASURED ON: Human immunodeficiency virus 1
LABEL CLASS: fulfilled

MOL: CN(C)CCNC(=O)c1ccc(F)c2c(C(=O)C(=O)N3CCN(C(=O)c4ccccc4)CC3)c[nH]c12
MEASURED ON: Human immunodeficiency virus 1
LABEL CLASS: not fulfilled

MOL: O=C(NCc1cccs1)c1ccc(F)c2c(C(=O)C(=O)N3CCN(C(=O)c4ccccc4)CC3)c[nH]c12
MEASURED ON: Human immunodeficiency virus 1
LABEL CLASS: not fulfilled

====

assay: Permeability across human Caco2 cells at pH 6.5; type: ADME, cell-based; conditions: Caco-2, pH 6.5, read-out: permeability

MOL: C[C@@H]1CN(C(=O)c2ccccc2)CCN1C(=O)C(=O)c1c[nH]c2c(C(N)=O)ccc(F)c12
Papp / ×10⁻⁶ cm/s: 5.1
//
MOL: CNC(=O)c1ccc(OC)c2c(C(=O)C(=O)N3CCN(C(=O)c4ccccc4)CC3)c[nH]c12
Papp / ×10⁻⁶ cm/s: 3.9
//
MOL: NC(=O)c1ccc(F)c2c(C(=O)C(=O)N3CCN(C(=O)c4ccccc4)CC3)c[nH]c12
Papp / ×10⁻⁶ cm/s: 2.4
//
MOL: O=C(NS(=O)(=O)c1ccccc1)c1ccc(F)c2c(C(=O)C(=O)N3CCN(C(=O)c4ccccc4)CC3)c[nH]c12
Papp / ×10⁻⁶ cm/s: 1.5

====

A collection of molecules and their measured CC50 at 144 h
assay: Cytotoxicity against human HeLa cells expressing CD4 assessed as cell viability after 6 days by XTT assay; assay type: cell-based

MOL: O=C(NC1=NCCS1)c1ccc(F)c2c(C(=O)C(=O)N3CCN(C(=O)c4ccccc4)CC3)c[nH]c12
CC50 at 144 h: > 300 µM

MOL: CNC(=O)c1ccc(OC)c2c(C(=O)C(=O)N3CCN(C(=O)c4ccccc4)CC3)c[nH]c12
CC50 at 144 h: > 300 µM

MOL: O=C(Nc1nccs1)c1ccc(F)c2c(C(=O)C(=O)N3CCN(C(=O)c4ccccc4)CC3)c[nH]c12
CC50 at 144 h: 89 µM

MOL: CNC(=O)c1ccc(F)c2c(C(=O)C(=O)N3CCN(C(=O)c4ccccc4)C[C@H]3C)c[nH]c12
CC50 at 144 h: > 300 µM

====

experiment: Aqueous solubility of the compound in crystalline form at pH 6.5; assay type: physicochemical; details: aqueous, read-out: solubility
EXPERIMENTAL ENDPOINT: solubility (µg/mL)

MOL: CNC(=O)c1ccc(F)c2c(C(=O)C(=O)N3CCN(C(=O)c4ccccc4)CC3)c[nH]c12
TEST VALUE: 33

====

assay: Half life in human liver microsomes; type: ADME, Microsome
EXPERIMENTAL ENDPOINT: half-life (h)

MOL: O=C(Nc1nnn[nH]1)c1ccc(F)c2c(C(=O)C(=O)N3CCN(C(=O)c4ccccc4)CC3)c[nH]c12
READING QUALIFIER: >
TEST VALUE: 1.67
//
MOL: NC(=O)c1ccc(F)c2c(C(=O)C(=O)N3CCN(C(=O)c4ccccc4)CC3)c[nH]c12
READING QUALIFIER: >
TEST VALUE: 1.67
//
MOL: O=C(C(=O)N1CCN(C(=O)c2ccccc2)CC1)c1c[nH]c2cccc(F)c12
READING QUALIFIER: >
TEST VALUE: 1.67
//
MOL: CNC(=O)c1ccc(OC)c2c(C(=O)C(=O)N3CCN(C(=O)c4ccccc4)CC3)c[nH]c12
READING QUALIFIER: =
TEST VALUE: 0.667
//
MOL: CNC(=O)c1ccc(F)c2c(C(=O)C(=O)N3CCN(C(=O)c4ccccc4)CC3)c[nH]c12
READING QUALIFIER: =
TEST VALUE: 1.35
//
MOL: O=C(Nc1nccs1)c1ccc(F)c2c(C(=O)C(=O)N3CCN(C(=O)c4ccccc4)CC3)c[nH]c12
READING QUALIFIER: =
TEST VALUE: 0.0683
//
MOL: O=C(NS(=O)(=O)c1ccccc1)c1ccc(F)c2c(C(=O)C(=O)N3CCN(C(=O)c4ccccc4)CC3)c[nH]c12
READING QUALIFIER: >
TEST VALUE: 1.67
//
MOL: C[C@@H]1CN(C(=O)c2ccccc2)CCN1C(=O)C(=O)c1c[nH]c2c(C(N)=O)ccc(F)c12
READING QUALIFIER: =
TEST VALUE: 0.417

====

A collection of compounds and their measured bioavailability
assay: Oral bioavailability in rat at 5 mg/kg; type: ADME, organism-based; settings: in vivo
EXPERIMENTAL ENDPOINT: bioavailability (%)

MOL: NC(=O)c1ccc(F)c2c(C(=O)C(=O)N3CCN(C(=O)c4ccccc4)CC3)c[nH]c12
READING QUALIFIER: =
TEST VALUE: 21
--
MOL: O=C(Nc1nnn[nH]1)c1ccc(F)c2c(C(=O)C(=O)N3CCN(C(=O)c4ccccc4)CC3)c[nH]c12
READING QUALIFIER: <
TEST VALUE: 1
--
MOL: CNC(=O)c1ccc(F)c2c(C(=O)C(=O)N3CCN(C(=O)c4ccccc4)CC3)c[nH]c12
READING QUALIFIER: =
TEST VALUE: 65
--
MOL: O=C(NS(=O)(=O)c1ccccc1)c1ccc(F)c2c(C(=O)C(=O)N3CCN(C(=O)c4ccccc4)CC3)c[nH]c12
READING QUALIFIER: <
TEST VALUE: 2

Sourced from ChEMBL document CHEMBL2311358
